Reference source for all entries: ChEMBL document CHEMBL1151957

Reported pIC50 values are given for each entry in this list.
tested on: SK-OV-3; assay: Cytotoxicity against human SKOV3 cells by SRB assay; format: functional, cell-based
Schema: pIC50 number; meaning minus log10 of the concentration expressed in molar units.

smiles_data: CC(C)[C@]12O[C@H]1[C@@H]1O[C@]13[C@]1(O[C@H]1C=C1C4=C(CC[C@@]13C)C(=O)OC4)[C@]21CO1
test_target: SK-OV-3
pIC50: 6.24

Turning now to a further record.
# input molecule: `CC(C)[C@]12O[C@H]1[C@@H]1O[C@]13[C@]1(O[C@H]1C[C@H]1C4=C(CC[C@@]13C)C(=O)OC4)[C@@]21CO1` ; wanted: its pIC50
5.81

----------
Reported pIC50 values are given for each entry in this list.
test system: MKN-28; test: Cytotoxicity against human MKN28 cells after 72 hrs […]; type: functional, cell-based; conditions: MKN-28, 72 h
Schema: pIC50 number; meaning minus log10 of the concentration expressed in molar units.

molecule: CC(C)[C@]12O[C@H]1[C@@H]1O[C@]13[C@]1(O[C@H]1C[C@H]1C4=C(CC[C@@]13C)C(=O)OC4)[C@@H]2O [TRIPTOLIDE]
pIC50: 6.70

Turning now to a further record.
# input molecule: `CC(C)[C@]12O[C@H]1[C@@H]1O[C@]13[C@]1(O[C@H]1C[C@H]1C4=C(CC[C@@]13C)C(=O)OC4)[C@]21CO1` ; wanted: its pIC50
5.60

----------
tested on: MDA-MB-468; test: Cytotoxicity against human MDA-MB-468 cells by SRB assay; assay type: functional, cell-based
Reported IC50 values are given for each entry in this list.

Examples with answers:
molecule: CC(C)[C@]12O[C@H]1[C@@H]1O[C@]13[C@]1(O[C@H]1C[C@H]1C4=C(CC[C@@]13C)C(=O)OC4)[C@H]2O [EPITRIPTOIIDE]
outcome_measure: IC50
endpoint_result: 1320 nM
//
molecule: CC(C)[C@]12O[C@H]1[C@@H]1O[C@]13[C@]1(O[C@H]1C[C@H]1C4=C(CC[C@@]13C)C(=O)OC4)[C@]21CO1
outcome_measure: IC50
endpoint_result: 180 nM
//
molecule: CC(C)[C@]12O[C@H]1[C@@H]1O[C@@]13[C@@]1(C)CCC4=C(COC4=O)[C@]1(O)C[C@@H]1O[C@@]13[C@]21CO1
outcome_measure: IC50
endpoint_result: 2370 nM
//
molecule: CC(C)[C@]1(O)[C@H](Cl)[C@@H]2O[C@]23[C@]2(O[C@H]2C[C@H]2C4=C(CC[C@@]23C)C(=O)OC4)[C@]12CO2
outcome_measure: IC50
endpoint_result: 210 nM
//
molecule: CC(C)[C@]12O[C@H]1[C@@H]1O[C@]13[C@]1(O[C@H]1C[C@H]1C4=C(CC[C@@]13C)C(=O)OC4)[C@]2(O)CO
outcome_measure: IC50
endpoint_result: > 100000 nM

Turning now to a further record.
# input molecule: CC(C)[C@]12O[C@H]1[C@@H]1O[C@]13[C@]1(O[C@H]1C[C@H]1C4=C(CC[C@@]13C)C(=O)OC4)[C@@H]2O [TRIPTOLIDE] ; wanted: its IC50
10 nM

----------
system: U-251; experiment: Cytotoxicity against human U251 cells after 72 hrs […]; assay type: functional, cell-based; details: U-251, 72 h
outcome_measure: IC50 (nM)
Numeric only. Scale: nM

molecule: CC(C)[C@]12O[C@H]1[C@@H]1O[C@]13[C@]1(O[C@H]1C[C@H]1C4=C(CC[C@@]13C)C(=O)OC4)[C@@H]2O [TRIPTOLIDE]
IC50 / nM: 49

Turning now to a further record.
Checklist item: IC50 tested on U-251, entry `CC(C)[C@]12O[C@H]1[C@@H]1O[C@]13[C@]1(O[C@H]1C[C@H]1C4=C(CC[C@@]13C)C(=O)OC4)[C@]21CO1` , value?
657

----------
tested on: SK-OV-3; assay: Cytotoxicity against human SKOV3 cells by SRB assay; assay type: functional, cell-based
pIC50: −log10 of the molar value.
Classification field: enter Satisfied for pIC50 values not below 7, Not satisfied for values below it.

Consider the worked cases shown below.
compound: CC(C)[C@]12O[C@H]1[C@@H]1O[C@]13[C@]1(O[C@H]1C[C@H]1C4=C(CC[C@@]13C)C(=O)OC4)[C@H]2O [EPITRIPTOIIDE]
category_label: Not satisfied

compound: CC(C)[C@]12O[C@H]1[C@@H]1O[C@]13[C@]1(O[C@H]1C[C@H]1C4=C(CC[C@@]13C)C(=O)OC4)[C@]2(O)CO
category_label: Not satisfied

compound: CC(C)[C@]12O[C@H]1[C@@H]1O[C@@]13[C@@]1(C)CCC4=C(COC4=O)[C@]1(O)C[C@@H]1O[C@@]13[C@]21CO1
category_label: Not satisfied

For this compound, is measured pIC50 7 or higher? CC(C)[C@]12O[C@H]1[C@@H]1O[C@]13[C@]1(O[C@H]1C[C@H]1C4=C(CC[C@@]13C)C(=O)OC4)[C@@H]2O [TRIPTOLIDE]
Satisfied

----------
test system: MCF7; assay: Cytotoxicity against human MCF7 cells after 72 hrs […]; format: functional, cell-based; conditions: MCF7, 72 h
outcome_measure: pIC50
Schema: pIC50 number; meaning minus log10 of the concentration expressed in molar units.

compound: CC(C)[C@]12O[C@H]1[C@@H]1O[C@]13[C@]1(O[C@H]1C[C@H]1C4=C(CC[C@@]13C)C(=O)OC4)[C@@H]2O [TRIPTOLIDE]
test_target: MCF7
endpoint_result: 7.72

Turning now to a further record.
# input compound: `CC(C)[C@]12O[C@H]1[C@@H]1O[C@]13[C@]1(O[C@H]1C[C@H]1C4=C(CC[C@@]13C)C(=O)OC4)[C@]21CO1` ; wanted: its pIC50
6.44

----------
test system: MDA-MB-468; assay: Cytotoxicity against human MDA-MB-468 cells by SRB assay; format: functional, cell-based
outcome_measure: pIC50
Schema: pIC50 number; meaning minus log10 of the concentration expressed in molar units.

smiles_data: CC(C)[C@]12O[C@H]1[C@@H]1O[C@]13[C@]1(O[C@H]1C[C@H]1C4=C(CC[C@@]13C)C(=O)OC4)[C@@]21CO1
pIC50: 5.72

# input molecule: `CC(C)[C@]12O[C@H]1[C@@H]1O[C@]13[C@]1(O[C@H]1C=C1C4=C(CC[C@@]13C)C(=O)OC4)[C@]21CO1` ; wanted: its pIC50
5.94

----------
Reported pIC50 values are given for each entry in this list.
tested on: K562; assay: Cytotoxicity against human K562 cells after 72 hrs by MTT assay; type: functional, cell-based; details: K562, 72 h
Schema: pIC50 number; meaning minus log10 of the concentration expressed in molar units.

compound: CC(C)[C@]12O[C@H]1[C@@H]1O[C@]13[C@]1(O[C@H]1C[C@H]1C4=C(CC[C@@]13C)C(=O)OC4)[C@@H]2O [TRIPTOLIDE]
test_target: K562
pIC50: 7.30

# input compound: `CC(C)[C@]12O[C@H]1[C@@H]1O[C@]13[C@]1(O[C@H]1C[C@H]1C4=C(CC[C@@]13C)C(=O)OC4)[C@]21CO1` ; wanted: its pIC50
6.38
